Test system: Human promyelocytic leukemia (HL60) cells
Test: HL-60 differentiation (nitro blue tetrazolium reduction)
Format: cell-based
Conditions: four days, FIG. 2
measure-name: EC50 (nM)
Give your result in nM as a bare value.

Consider the molecule shown here: C=C1/C(=C\C=C2/CCC[C@]3(C)[C@@H]([C@H](C)CCCC(C)(C)O)CC[C@@H]23)C[C@@H](O)C[C@@H]1O [1α,25-dihydroxyvitamin D3, reference compound] What is its recorded EC50?
2

These measurements were taken from patent US8987235B2.
